Measured values drawn from patent US10669272B2 for this set.

target: human DGKα (Homo sapiens); construct: TVMV protease cleavage site (C); Hexa-His (C); made in house; host or cells: Sf9 insect cells (baculovirus, Bac-to-Bac); assay: DGKα LIPGLO assay (extruded liposome substrate), in vitro DGK inhibition; format: biochemical; conditions: liposome (LIPGLO) assay; read-out: DGKa LIPGLO IC50
Sequence (P23743 with tags, fused parts or gaps): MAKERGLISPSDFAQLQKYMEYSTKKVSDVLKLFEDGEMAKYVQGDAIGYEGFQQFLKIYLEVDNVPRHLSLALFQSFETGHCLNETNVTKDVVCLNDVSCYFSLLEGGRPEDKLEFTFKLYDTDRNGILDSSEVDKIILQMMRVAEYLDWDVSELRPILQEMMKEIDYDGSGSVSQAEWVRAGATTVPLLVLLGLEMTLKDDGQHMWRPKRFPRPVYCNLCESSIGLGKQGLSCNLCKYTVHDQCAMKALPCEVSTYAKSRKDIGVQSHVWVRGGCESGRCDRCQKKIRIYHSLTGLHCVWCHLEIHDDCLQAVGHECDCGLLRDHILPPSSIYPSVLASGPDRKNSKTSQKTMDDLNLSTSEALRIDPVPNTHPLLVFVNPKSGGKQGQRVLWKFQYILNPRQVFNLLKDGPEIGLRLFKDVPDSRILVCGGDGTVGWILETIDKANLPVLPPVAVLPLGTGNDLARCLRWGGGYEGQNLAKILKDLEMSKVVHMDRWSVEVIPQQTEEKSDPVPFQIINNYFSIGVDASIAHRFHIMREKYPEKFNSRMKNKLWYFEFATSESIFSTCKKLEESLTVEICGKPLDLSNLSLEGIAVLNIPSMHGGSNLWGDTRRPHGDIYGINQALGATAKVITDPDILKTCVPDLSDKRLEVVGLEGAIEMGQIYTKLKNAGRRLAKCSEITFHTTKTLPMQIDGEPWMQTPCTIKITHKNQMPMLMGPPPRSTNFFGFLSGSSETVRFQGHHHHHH
Using IC50 as the sorting value, the categories are low range = under 1000 nM, mid range = from 1000 nM up to 4000 nM, high range = 4000 nM and over

# example entries with known answers
COc1cc(F)ccc1C(c1ccc(F)cc1)N1C[C@H](C)N(c2c([N+](=O)[O-])c(=O)n(C)c3ccc(C#N)nc23)C[C@H]1C (single isomer, unassigned) [Example 121] : high range
CCC(c1cc(OC(F)(F)F)ccc1F)N1C[C@H](CC)N(c2cc(=O)n(C)c3ccc(C#N)nc23)C[C@H]1C (single isomer, unassigned) [Example 1380] : low range
CC(C)c1nc(CN2C[C@H](C)N(c3cc(=O)n(C)c4ccc(C#N)nc34)C[C@H]2C)no1 : mid range
C[C@@H]1CN(c2c(C#N)c(=O)n(C)c3ccc(C#N)nc23)CCN1C(c1ccc(F)cc1)c1nccs1 (single isomer, unassigned) [Example 1024] : low range
COC(=O)C1CN(c2cc(=O)n(C)c3ccc(C#N)nc23)CCN1C(c1ccc(F)cc1)c1ccc(F)cc1OC (single isomer, unassigned) [Example 72] : high range
CC(c1ccc(OC(F)(F)F)cc1F)N1C[C@H](C)N(c2cc(=O)n(C)c3ccc(C#N)nc23)C[C@H]1C (single isomer, unassigned) [Example 442] : mid range
CC[C@@H]1CN(c2cc(=O)n(C)c3ccc(C#N)nc23)[C@@H](C)CN1C(C)c1ccc(OC(F)F)cc1 (some centres unmarked) [Example 1344] : low range
Cn1c(=O)c(C#N)c(N2CCN(C(c3ccc(F)cc3)c3ccc(F)cc3)C(C(=O)NC3CC3)C2)c2nc(C#N)ccc21 (single isomer, unassigned) [Example 61] : high range
C[C@@H]1CN(c2c(C#N)c(=O)n(C)c3ccc(Br)nc23)[C@@H](C)CN1C(c1ccc(F)cc1)c1ccc(F)cc1 : mid range
C[C@@H]1CN(c2cc(=O)n(C)c3ccc(C#N)nc23)[C@@H](C)CN1C(CO)c1ccc(C(F)(F)F)cn1 (some centres unmarked) [Example 1279] : mid range

Moving on to another compound below.
Hey, which category is CC(c1ccc(C#N)c(OCCN(C)C)c1)N1C[C@H](C)N(c2cc(=O)n(C)c3ccc(C#N)nc23)C[C@H]1C (single isomer, unassigned) [Example 1322] in, do you know?
high range
